assay: Acute toxicity in the rat; type: in vivo; details: in vivo, oral
Measured parameter: LD50

Compound: CC1CC(c2ccccc2)C(c2ccccc2)C(=O)O1 (stereo not shown) [MDTP]
Measured parameter: LD50
Observed value: > 300 mg/kg

====

assay: Determination of acute toxicity in the mouse; format: in vivo; conditions: in vivo, oral, Behrens and Karber

Compound: CC1CC(c2ccccc2)C(c2ccccc2)C(=O)O1 (stereo not shown)
Units of measure: mg/kg
LD50: 625

====

experiment: Determination of acute toxicity in the mouse; assay type: in vivo; conditions: in vivo, ip, intraperitoneal, Behrens and Karber

Molecule: CC1CC(c2ccccc2)C(c2ccccc2)C(=O)O1 (stereo not shown)
LD50 (mg/kg): 150
